system: T1, CD3 epsilon homodimer protein (UniProt P07766 23-126)
T1 construct: also called CD3 (CD3 epsilon)
T1 sequence (P07766 23-126): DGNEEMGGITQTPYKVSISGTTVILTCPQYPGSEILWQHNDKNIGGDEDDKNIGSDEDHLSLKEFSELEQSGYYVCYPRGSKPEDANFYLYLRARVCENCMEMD
test_method_notes: SPR Biacore T200, CD3e homodimer on chip, vs unaltered GLS3000 antibody
Exercise: state measured ratio of amounts bound (Z=Y/X) for each of the binders provided.
Number, no unit, nothing else.

QUERY: May I ask what ratio of amounts bound (Z=Y/X) has been recorded for GLS3000 S27eP (antibody, name in Kabat numbering, V domains shown, one-arm IgG as m2) VH: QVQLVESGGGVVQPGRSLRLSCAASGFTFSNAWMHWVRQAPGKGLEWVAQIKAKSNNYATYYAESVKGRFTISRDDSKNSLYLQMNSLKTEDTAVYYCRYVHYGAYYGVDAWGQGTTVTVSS VL: DIVMTQSPLSLPVTPGEPASISCRSSQSLVHPNRNTYLHWYQQKPGQAPRLLIYKVSNRFSGVPDRFSGSGSGTDFTLKISRVEAEDVGVYYCGQGTQVPYTFGQGTKLEIK ?
RESULT: 1.26

QUERY: // query ratio of amounts bound (Z=Y/X) value for entry GLS3000 H34P (antibody, name in Kabat numbering, V domains shown, one-arm IgG as m2) VH: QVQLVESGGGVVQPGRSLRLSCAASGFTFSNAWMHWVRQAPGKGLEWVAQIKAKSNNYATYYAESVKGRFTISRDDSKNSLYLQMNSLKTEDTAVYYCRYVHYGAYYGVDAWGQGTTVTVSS VL: DIVMTQSPLSLPVTPGEPASISCRSSQSLVHSNRNTYLPWYQQKPGQAPRLLIYKVSNRFSGVPDRFSGSGSGTDFTLKISRVEAEDVGVYYCGQGTQVPYTFGQGTKLEIK
RESULT: 0.34

QUERY: I would be grateful if you could share the reported ratio of amounts bound (Z=Y/X) for GLS3000 Y32P (antibody, name in Kabat numbering, V domains shown, one-arm IgG as m2) VH: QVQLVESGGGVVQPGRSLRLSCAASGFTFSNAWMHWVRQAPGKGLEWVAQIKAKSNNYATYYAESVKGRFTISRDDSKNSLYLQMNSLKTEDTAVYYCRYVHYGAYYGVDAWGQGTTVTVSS VL: DIVMTQSPLSLPVTPGEPASISCRSSQSLVHSNRNTPLHWYQQKPGQAPRLLIYKVSNRFSGVPDRFSGSGSGTDFTLKISRVEAEDVGVYYCGQGTQVPYTFGQGTKLEIK .
RESULT: 0.24

QUERY: Could you share which ratio of amounts bound (Z=Y/X) value was measured for GLS3000 F55A (antibody, name in Kabat numbering, V domains shown, one-arm IgG as m2) VH: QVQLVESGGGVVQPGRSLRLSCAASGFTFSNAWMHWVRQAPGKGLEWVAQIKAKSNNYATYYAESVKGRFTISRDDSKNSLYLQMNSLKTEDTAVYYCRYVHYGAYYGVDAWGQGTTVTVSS VL: DIVMTQSPLSLPVTPGEPASISCRSSQSLVHSNRNTYLHWYQQKPGQAPRLLIYKVSNRASGVPDRFSGSGSGTDFTLKISRVEAEDVGVYYCGQGTQVPYTFGQGTKLEIK ?
RESULT: 1.13

QUERY: Quick one: ratio of amounts bound (Z=Y/X) of GLS3000 N28T (antibody, name in Kabat numbering, V domains shown, one-arm IgG as m2) VH: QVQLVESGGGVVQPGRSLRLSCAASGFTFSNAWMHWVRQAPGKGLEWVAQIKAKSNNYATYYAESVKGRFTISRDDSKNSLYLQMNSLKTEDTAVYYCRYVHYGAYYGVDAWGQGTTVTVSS VL: DIVMTQSPLSLPVTPGEPASISCRSSQSLVHSTRNTYLHWYQQKPGQAPRLLIYKVSNRFSGVPDRFSGSGSGTDFTLKISRVEAEDVGVYYCGQGTQVPYTFGQGTKLEIK ?
RESULT: 0.45
